- Test system: Tyrosine-protein kinase receptor TYRO3 (Homo sapiens);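 note: reported percentages are averaged inhibition values of TYRO3 kinase activity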
- Condition notes: at 0.1 µM
Use 2% as the dividing line for inhibition, with the line itself on the true (1) side and lower values as false (0).

Would you please look over these solved cases?
>>> assigned_class("FC(F)(F)c1cccc(-c2nn3ncccc3c2-c2ccnc(Nc3ccc4c(c3)OCCO4)n2)c1")
"true (1)"
>>> assigned_class("CCNC(=O)O[C@H]1CN[C@H](C#Cc2cc3ncnc(Nc4ccc(OCc5cccc(F)c5)c(Cl)c4)c3s2)C1")
"true (1)"
>>> assigned_class("Fc1ccc(-c2nn3ncccc3c2-c2ccnc(Nc3ccc4c(c3)OCCO4)n2)cc1")
"true (1)"
>>> assigned_class("CCn1c(-c2nonc2N)nc2ccccc21")
"false (0)"

Evaluate `CCOc1ccc2c(-c3ccnc(Nc4cccc(C(F)(F)F)c4)n3)cnn2n1` : inhibition at minimum 2%?
false (0)

Evaluate `COc1cc(/C=N/Nc2ncnc3[nH]ncc23)ccc1O` : inhibition at minimum 2%?
true (1)

Evaluate `N#Cc1c(NC(=O)CN2CCOCC2)sc2c1CCCC2` : inhibition at minimum 2%?
true (1)

Evaluate `COc1cc(Nc2nccc(Nc3ccc4c(C)n[nH]c4c3)n2)cc(OC)c1OC` : inhibition at minimum 2%?
true (1)

Evaluate `NS(=O)(=O)c1ccc(N/N=C2\C(=O)Nc3ccc4ncccc4c32)cc1` : inhibition at minimum 2%?
true (1)

----------
- Test system: Tyrosine-protein kinase BTK (Homo sapiens) (UniProt Q06187);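 note: values are mean percent inhibition of BTK across replicate measurements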
- Sequence (Q06187 whole entry): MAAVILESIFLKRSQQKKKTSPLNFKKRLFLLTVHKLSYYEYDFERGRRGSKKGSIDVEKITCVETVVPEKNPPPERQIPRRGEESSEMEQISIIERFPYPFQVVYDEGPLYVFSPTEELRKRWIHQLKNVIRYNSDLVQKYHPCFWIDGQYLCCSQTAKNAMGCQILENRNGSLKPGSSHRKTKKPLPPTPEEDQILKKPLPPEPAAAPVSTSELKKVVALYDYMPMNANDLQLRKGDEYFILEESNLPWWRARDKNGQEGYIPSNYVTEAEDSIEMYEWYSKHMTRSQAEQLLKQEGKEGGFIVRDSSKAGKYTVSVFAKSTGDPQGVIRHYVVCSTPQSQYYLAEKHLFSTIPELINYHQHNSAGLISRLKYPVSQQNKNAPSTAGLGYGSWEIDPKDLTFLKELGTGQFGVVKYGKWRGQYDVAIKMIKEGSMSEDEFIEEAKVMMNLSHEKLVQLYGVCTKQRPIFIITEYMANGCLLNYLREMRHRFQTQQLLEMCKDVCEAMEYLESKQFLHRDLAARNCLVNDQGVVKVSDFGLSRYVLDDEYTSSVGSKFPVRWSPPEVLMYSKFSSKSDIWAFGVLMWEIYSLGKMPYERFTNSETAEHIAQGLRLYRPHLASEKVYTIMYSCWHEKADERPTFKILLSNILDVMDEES
- Condition notes: at 1 µM
Attribute measured: inhibition
Please state the value followed by its unit.

Past entries and their recorded results:
>>> value("COc1cccc(-n2ncc3c(N/N=C/c4ccc(F)cc4)ncnc32)c1")
"1.13%"
>>> value("COc1ccc(-c2cc(-c3c[nH]nc3-c3ccccn3)ccn2)cc1")
"1.28%"
>>> value("COc1cc2c(cc1Nc1nc(Nc3ccsc3C(N)=O)c3cc[nH]c3n1)N(C(=O)CN(C)C)CCC2(C)C")
"1.1%"
>>> value("CCn1c(-c2nonc2N)nc2c(C#CC(C)(C)O)nc(OC[C@H](N)c3ccccc3)cc21")
"0.56%"
>>> value("c1ccc(-c2nc3n(c2-c2ccc4c(c2)OCO4)CCC3)nc1")
"-1.35%"

Next up:
Would you kindly share the measured inhibition for `COc1ccc(CNC(=O)c2ccc(-c3cc(-c4nnc(C)o4)ccc3C)cc2)cc1` ?
2.36%

----------
- Test system: Cyclin-dependent kinase 2 (Homo sapiens) (UniProt P24941);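 note: mean inhibition of CDK2 bound to cyclin A, from the GSK PKIS kinase inhibitor set screen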
- Condition notes: at 0.1 µM
Listing: inhibition of selected molecules
Numbers only here, please. The scale is %.

Would you kindly share the measured inhibition for `Fc1ccc(-c2nn3ncccc3c2-c2ccnc(Nc3ccc4c(c3)OCCO4)n2)cc1` ?
1.25

Would you kindly share the measured inhibition for `COc1ccc(CNC(=O)c2ccc(-c3cc(-c4nnc(C)o4)ccc3C)cc2)cc1` ?
-2.09

----------
- Tested on: Serine/threonine-protein kinase B-raf (Homo sapiens), P15056 [V600E];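 note: enzyme inhibition of the BRAF V599E mutant kinase, given as mean percent inhibition, screened within the GSK PKIS kinase inhibitor set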
- Sequence (P15056 whole entry V600E): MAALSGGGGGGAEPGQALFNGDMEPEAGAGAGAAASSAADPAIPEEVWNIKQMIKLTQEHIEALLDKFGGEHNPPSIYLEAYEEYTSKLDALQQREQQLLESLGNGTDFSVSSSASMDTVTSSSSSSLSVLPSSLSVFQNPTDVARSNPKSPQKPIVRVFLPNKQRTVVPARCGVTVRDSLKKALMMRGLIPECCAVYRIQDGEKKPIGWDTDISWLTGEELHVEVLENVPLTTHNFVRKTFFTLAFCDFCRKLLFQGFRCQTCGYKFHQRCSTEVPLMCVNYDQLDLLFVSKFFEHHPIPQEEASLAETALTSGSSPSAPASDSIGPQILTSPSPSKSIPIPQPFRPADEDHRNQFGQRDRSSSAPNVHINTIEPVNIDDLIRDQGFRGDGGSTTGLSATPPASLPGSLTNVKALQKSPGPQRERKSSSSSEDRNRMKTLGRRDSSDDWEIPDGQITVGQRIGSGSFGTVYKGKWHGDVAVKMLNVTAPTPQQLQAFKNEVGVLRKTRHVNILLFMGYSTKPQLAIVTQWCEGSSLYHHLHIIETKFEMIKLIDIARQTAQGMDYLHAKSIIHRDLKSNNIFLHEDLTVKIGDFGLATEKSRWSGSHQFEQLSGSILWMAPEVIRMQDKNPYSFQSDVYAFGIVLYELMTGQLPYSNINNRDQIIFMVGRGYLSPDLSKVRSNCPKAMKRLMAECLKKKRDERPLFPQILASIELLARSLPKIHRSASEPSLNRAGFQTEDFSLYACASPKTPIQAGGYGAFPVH
- Condition notes: at 1 µM
- Description: GSK_PKIS: BRAF (V599E mutant) mean inhibition at 1 uM [Nanosyn]
Attribute measured: inhibition (%)
Numbers only here, please. The scale is %.

>>> value("CCCN1CCC(c2ccc(Nc3nc(Nc4cc(F)ccc4C(N)=O)c4cc[nH]c4n3)c(OC)c2)CC1")
37.4

Would you kindly share the measured inhibition for `COC(=O)c1sc(-n2cnc3cc(OC)c(OC)cc32)cc1OCc1ccccc1C(F)(F)F` ?
6.69

Would you kindly share the measured inhibition for `COc1cc2c(cc1Nc1nc(Nc3ccsc3C(N)=O)c3cc[nH]c3n1)N(C(=O)CN(C)C)CCC2(C)C` ?
14

Would you kindly share the measured inhibition for `CS(=O)(=O)CCNCc1ccc(-c2ccc3ncnc(Nc4ccc(OCc5ccccc5)c(C(F)(F)F)c4)c3c2)o1` ?
3

Would you kindly share the measured inhibition for `O=C(Nc1n[nH]c2cc(-c3ccc(F)cc3)ccc12)C1CC1` ?
5.12

Would you kindly share the measured inhibition for `NS(=O)(=O)c1ccc(N/N=C2\C(=O)Nc3ccc4ncccc4c32)cc1` ?
60.8

Would you kindly share the measured inhibition for `CNC(=O)c1cc(-c2ccc(F)cc2)cc(-c2ccc(S(=O)(=O)N3CCCC3)cc2)c1N` ?
3.6

Would you kindly share the measured inhibition for `Cc1cccc(Nc2ncc(-c3ccccc3)o2)c1` ?
3.05
